- System: Staphylococcus aureus
- assay-method-text: Antibacterial activity against Staphylococcus aureus UC9218
- Type: functional
In this section, each of the molecules is paired with its reported MIC.

Answered cases to consult:
>  <cpd-smiles>
CN(c1ccc(Cl)cc1)S(=O)(=O)c1ccc(C(=O)Nc2ccc(Br)cc2Br)cc1

>  <MIC>
> 128 µg/mL

$$$$
>  <cpd-smiles>
Cc1cc(Br)ccc1NC(=O)c1ccc(S(=O)(=O)N(C)c2ccc(Cl)cc2)cc1

>  <MIC>
> 128 µg/mL

$$$$
>  <cpd-smiles>
CN(c1ccc(Cl)cc1)S(=O)(=O)c1ccc(C(=O)Nc2ccc(Br)cc2)cc1

>  <MIC>
> 128 µg/mL

$$$$

What MIC value was documented for this molecule, CN(c1ccc(Cl)cc1)S(=O)(=O)c1ccc(C(=O)Nc2ccc(Br)cc2S(N)(=O)=O)cc1 ? > 128 µg/mL

Similarly, CN(c1ccc(Cl)cc1)S(=O)(=O)c1ccc(C(=O)Nc2ccc(Br)cc2C(O)(C(F)(F)F)C(F)(F)F)cc1 ? 0.5 µg/mL

----------
- Tested on: Staphylococcus aureus
- assay-method-text: Antibacterial activity against Staphylococcus aureus UC9218 in presence of 5% HSA
- Assay type: functional
property-measured: MIC (µg/mL)

[P] CN(c1ccc(Cl)cc1)S(=O)(=O)c1ccc(C(=O)Nc2ccc(Br)cc2C(O)(C(F)(F)F)C(F)(F)F)cc1
[Q] CN(c1ccc(Cl)cc1)S(=O)(=O)c1ccc(C(=O)Nc2ccc(Br)cc2C(=O)O)cc1
Which value of MIC is greater, the one for P or the one for Q ? State the label of the item chosen. Q
(Q: 128 µg/mL, P: 64 µg/mL)

----------
- Tested on: Staphylococcus aureus
- assay-method-text: Inhibition of transcription/translation in Staphylococcus aureus at 100 uM
- Assay type: functional
property-measured: inhibition at 100 µM (%)
Lab book: enter the figure in %, no units written.

Worked set:
>  <compound>
CC(O)c1cc(Br)ccc1NC(=O)c1ccc(S(=O)(=O)N(C)c2ccc(Cl)cc2)cc1 (centres undefined)

>  <measurement-target>
Staphylococcus aureus

>  <unit-label>
%

>  <endpoint-result>
7

$$$$
>  <compound>
CN(c1ccc(Cl)cc1)S(=O)(=O)c1ccc(C(=O)Nc2ccc(Br)cc2-c2noc(=O)[nH]2)cc1

>  <measurement-target>
Staphylococcus aureus

>  <unit-label>
%

>  <endpoint-result>
98

$$$$
>  <compound>
CN(c1ccc(Cl)cc1)S(=O)(=O)c1ccc(C(=O)Nc2ccc(Br)cc2CO)cc1

>  <measurement-target>
Staphylococcus aureus

>  <unit-label>
%

>  <endpoint-result>
4

$$$$
>  <compound>
Cc1cc(Br)ccc1NC(=O)c1ccc(S(=O)(=O)N(C)c2ccc(Cl)cc2)cc1

>  <measurement-target>
Staphylococcus aureus

>  <unit-label>
%

>  <endpoint-result>
12

$$$$
>  <compound>
CN(c1ccc(Cl)cc1)S(=O)(=O)c1ccc(C(=O)Nc2ccc(Br)cc2NS(C)(=O)=O)cc1

>  <measurement-target>
Staphylococcus aureus

>  <unit-label>
%

>  <endpoint-result>
19

$$$$
>  <compound>
CN(c1ccc(Cl)cc1)S(=O)(=O)c1ccc(C(=O)Nc2ccc(Br)cc2C(=O)O)cc1

>  <measurement-target>
Staphylococcus aureus

>  <unit-label>
%

>  <endpoint-result>
79

$$$$
>  <compound>
CN(c1ccc(Cl)cc1)S(=O)(=O)c1ccc(C(=O)Nc2ccc(Br)cc2S(N)(=O)=O)cc1

>  <measurement-target>
Staphylococcus aureus

>  <unit-label>
%

>  <endpoint-result>
0

$$$$
>  <compound>
CN(c1ccc(Cl)cc1)S(=O)(=O)c1ccc(C(=O)Nc2ccc(Br)cc2Cc2nnn[nH]2)cc1

>  <measurement-target>
Staphylococcus aureus

>  <unit-label>
%

>  <endpoint-result>
46

$$$$

Moving on to another compound below.
// inhibition at 100 µM lookup, key: CONC(=O)c1cc(Br)ccc1NC(=O)c1ccc(S(=O)(=O)N(C)c2ccc(Cl)cc2)cc1 7
